Tested on: E. coli TESEC Mtb Alr
Assay: growth (OD600 after 10 h); higher = more growth (less inhibition)
Settings: arabinose 100 nM; compound 0.1 mM; raw OD600 reference: median of DMSO wells 0.413, cell-free background 0.052
Counter-ions that a name gives are not always drawn.
measured.attribute: growth

* CC(=O)/N=c1/sc(S(N)(=O)=O)nn1C [Methazolamide] | 0.397
* CCCCN1CCCCC1C(=O)Nc1c(C)cccc1C (configuration not stated) [Bupivacaine hydrochloride] | 0.409
* CC(C)(C)CC(C)(C)c1ccc(OCOCCOCCO)c(Cc2cc(C(C)(C)CC(C)(C)C)cc(Cc3cc(C(C)(C)CC(C)(C)C)ccc3OCOCCOCCO)c2OCOCCOCCO)c1 [Tyloxapol] | 0.418
* CC[N+](C)(C)c1cccc(O)c1 [Edrophonium chloride] | 0.401
* OCCN1CCN(CCCN2c3ccccc3Sc3ccc(Cl)cc32)CC1 [Perphenazine] | 0.285
* C=C(NC(=O)C(=C)NC(=O)c1csc(C2=N[C@@H]3c4csc(n4)[C@H]4NC(=O)c5csc(n5)[C@H]([C@](C)(O)[C@@H](C)O)NC(=O)[C@H]5CSC(=N5)/C(=C/C)NC(=O)[C@H]([C@@H](C)O)NC(=O)c5csc(n5)[C@]3(CC2)NC(=O)[C@H](C)NC(=O)C(=C)NC(=O)[C@H](C)NC(=O)[C@H]([C@@H](C)CC)N[C@@H]2C=Cc3c([C@H](C)O)cc(nc3[C@H]2O)C(=O)O[C@@H]4C)n1)C(N)=O [Thiostrepton] | 0.415
* Cc1c(N)c(=O)n(-c2ccccc2)n1C [Ampyrone] | 0.414
* O=C1[C@H]2CCCC[C@H]2C(=O)N1CCCCN1CCN(c2nsc3ccccc23)CC1 [Perospirone] | 0.419
* c1ccc2[nH]c(-c3cscn3)nc2c1 [Tiabendazole] | 0.408
* CN(C(=O)CN(CCO)CC(=O)N(C)C(C)(C)Cc1ccccc1)C(C)(C)Cc1ccccc1 [Oxethazaine] | 0.165
* C[C@](N)(Cc1ccc(O)c(O)c1)C(=O)O [Methyldopa (L,-)] | 0.411
* CCCCC1=NC2(CCCC2)C(=O)N1Cc1ccc(-c2ccccc2-c2nnn[nH]2)cc1 [Irbesartan] | 0.346
* Oc1c(Cl)cc(Cl)c(Cl)c1Cc1c(O)c(Cl)cc(Cl)c1Cl [Hexachlorophene] | 0.063
* O=C(NCC1CCCCN1)c1cc(OCC(F)(F)F)ccc1OCC(F)(F)F (configuration not stated) [Flecainide acetate] | 0.412
* O=C1CCC(N2C(=O)c3ccccc3C2=O)C(=O)N1 (configuration not stated) [Thalidomide] | 0.424
* NS(=O)(=O)c1cc(Cl)c(Cl)c(S(N)(=O)=O)c1 [Dichlorphenamide] | 0.402
* NC(=O)c1cccnc1 [Nicotinamide] | 0.43
* COC(=O)Nc1nc2cc(C(=O)c3ccccc3)ccc2[nH]1 [Mebendazole] | 0.413
* CCCCC1C(=O)N(c2ccccc2)N(c2ccccc2)C1=O [Phenylbutazone] | 0.399
* Nc1ccc(S(=O)(=O)Nc2ncccn2)cc1 [Sulfadiazine] | 0.411
* Cc1scc2c1N(C(=O)CN1CCN(C)CC1)c1ccccc1NC2=O [Telenzepine dihydrochloride] | 0.407
* Cc1c(OCC(F)(F)F)ccnc1C[S+]([O-])c1nc2ccccc2[nH]1 (configuration not stated) [Lansoprazole] | 0.363
* CC(=O)N1CCN(c2ccc(OCC3COC(Cn4ccnc4)(c4ccc(Cl)cc4Cl)O3)cc2)CC1 (configuration not stated) [Ketoconazole] | 0.32
* C=C1/C(=C\C=C2/CCC[C@]3(C)[C@@H]([C@H](C)/C=C/[C@@H](O)C4CC4)CC[C@@H]23)C[C@@H](O)C[C@@H]1O [Calcipotriene] | 0.234
* COCCOC(=O)C1=C(C)NC(C)=C(C(=O)OC(C)C)C1c1cccc([N+](=O)[O-])c1 (configuration not stated) [Nimodipine] | 0.404
* N=C(N)NC(=N)NCCc1ccccc1 [Phenformin hydrochloride] | 0.416
* Nc1nc(O)c2ncn(CCC(CO)CO)c2n1 [Penciclovir] | 0.411
* CNCC(O)c1ccc(O)c(O)c1 (configuration not stated) [Racepinephrine HCl] | 0.418
* CCN1CCC[C@H]1CNC(=O)c1c(OC)ccc(Br)c1OC [Remoxipride Hydrochloride] | 0.416
* O=C(O)c1cn(-c2ccc(F)cc2)c2cc(N3CCNCC3)c(F)cc2c1=O [Sarafloxacin] | 0.0545
* CNCCCC1c2ccccc2C=Cc2ccccc21 [Protriptyline hydrochloride] | 0.402
* COc1cccc2c1C(=O)c1c(O)c3c(c(O)c1C2=O)C[C@@](O)(C(=O)CO)C[C@@H]3O[C@H]1C[C@H](N)[C@@H](O)[C@H](C)O1 [Epirubicin hydrochloride] | 0.0587

The reported measurements were obtained from the supplement of paper PMC9262897.
